Record form. Attribute: GI50. Fill in for each entry.
Tested on: T-Rex 293 cell line SC3 cells lacking increased expression of androgen receptor protein
Test: Cellular growth inhibition, T-Rex 293 SC3 cells without doxycycline, CellTiter-Glo
Type: cell-based
Conditions: 72 h, T-Rex 293 SC3 cells not exposed to doxycycline, CellTiter-Glo 2.0

Entry "Cc1sc2c(c1C)C(c1ccc([C@@H]3CCCN(c4ncc(C(=O)N[C@H]5C(C)(C)[C@H](Oc6ccc(C#N)c(Cl)c6)C5(C)C)cn4)C3)cc1)=N[C@@H](Cc1ncco1)c1nnc(C)n1-2" , GI50 reported as < 500 nM

Entry CCNC(=O)C[C@@H]1N=C(c2ccc(OC3CCN(C4CCN(c5ncc(C(=O)N[C@H]6C(C)(C)[C@H](Oc7ccc(C#N)c(Cl)c7)C6(C)C)cn5)CC4)C3)cc2)c2c(sc(C)c2C)-n2c(C)nnc21 (some centres unmarked) , GI50 reported as > 3000 nM

Entry "CCNC(=O)C[C@@H]1N=C(c2ccc(OCCOC3CCN(c4ncc(C(=O)N[C@H]5C(C)(C)[C@H](Oc6ccc(C#N)c(Cl)c6)C5(C)C)cn4)CC3)cc2)c2c(sc(C)c2C)-n2c(C)nnc21" , GI50 reported as < 500 nM

Entry "Cc1sc2c(c1C)C(c1ccc(N(C)CC(=O)NCc3ncc(C(=O)N[C@H]4C(C)(C)[C@H](Oc5ccc(C#N)c(Cl)c5)C4(C)C)cn3)cc1)=N[C@H](Cc1ncco1)c1nnc(C)n1-2" , GI50 reported as > 3000 nM

Entry "CCNC(=O)C[C@@H]1N=C(c2ccc(CCCN(C)c3ncc(C(=O)N[C@H]4C(C)(C)[C@H](Oc5ccc(C#N)c(Cl)c5)C4(C)C)cn3)cc2)c2c(sc(C)c2C)-n2c(C)nnc21" , GI50 reported as < 500 nM
